tested on: HEK-293T; assay: Multiplex assay against HEK293T; assay type: toxicity, cell-based; conditions: human, 12 h, 10 µM, compound concentration 10 uM, replicate 1
The entries below are paired with their reported Population Membrane Permeable-Phenotype (%).
Your answer should be a plain number; it is taken to be in %.

>>> df
                                   molecule  study_system  units_text  observed
0  CN(C)CC#Cc1ccc(OCCCc2sc(N3CCc4cccc(C(=O)Nc5nc6ccccc6s5)c4C3)nc2C(=O)O)c(F)c1      HEK-293T           %        13

INPUT: Report Population Membrane Permeable-Phenotype (%) under test system HEK-293T for CN1CCCC(n2nc(Cc3ccc(Cl)cc3)c3ccccc3c2=O)CC1.Cl (stereo not drawn) [AZELASTINE HYDROCHLORIDE] .
OUTPUT: 2

INPUT: Report Population Membrane Permeable-Phenotype (%) under test system HEK-293T for `C=CC(=O)Nc1cccc(C(=O)Nc2ccc(Nc3cc(-c4[nH]c(SC)nc4C)ccn3)cc2)c1` .
OUTPUT: 20

INPUT: Report Population Membrane Permeable-Phenotype (%) under test system HEK-293T for `C=CC(=O)Nc1ccc2ncnc(Nc3ccc(OCc4cccc(F)c4)c(Cl)c3)c2c1.Cc1ccc(S(=O)(=O)O)cc1` .
OUTPUT: 2

INPUT: Report Population Membrane Permeable-Phenotype (%) under test system HEK-293T for C=CC(=O)Nc1cc2c(Nc3ccc(F)c(Cl)c3)ncnc2cc1OCCCN1CCOCC1.Cl.Cl [CANERTINIB DIHYDROCHLORIDE] .
OUTPUT: 3

INPUT: Report Population Membrane Permeable-Phenotype (%) under test system HEK-293T for `CCOCCn1cc(C(=O)Nc2ccc(-n3nc(-c4cccnc4)cc3C(F)(F)F)cn2)ccc1=O` .
OUTPUT: 6

INPUT: Report Population Membrane Permeable-Phenotype (%) under test system HEK-293T for `COc1cc(-n2cnc3cc(-c4ccc(Cl)cc4)sc3c2=O)ccc1OCCN1CCCC1` .
OUTPUT: 0

INPUT: Report Population Membrane Permeable-Phenotype (%) under test system HEK-293T for `Cc1[nH]c(/C=C2\C(=O)Nc3ccc(S(=O)(=O)N(C)c4cccc(Cl)c4)cc32)c(C)c1C(=O)N1CCN(C)CC1` .
OUTPUT: 5

###

test system: Fibroblast; assay: Multiplex assay against human fibroblast; format: toxicity, cell-based; conditions: 24 h, 1 µM, compound concentration 1 uM, replicate 1
Assay metric: Population Hoechst High Intensity Objects (%)
Your answer should be a plain number; it is taken to be in %.

Example entries begin here.
In [3]: df
Out[3]:
                                   molecule  observed
0  Cc1[nH]c(/C=C2\C(=O)Nc3ccc(S(=O)(=O)N(C)c4cccc(Cl)c4)cc32)c(C)c1C(=O)N1CCN(C)CC1         3
1  CC(C)NCC(O)COc1ccc(CCOCC2CC2)cc1.Cl (centres undefined) [BETAXOLOL HYDROCHLORIDE]         9
2  COc1cc(-n2cnc3cc(-c4ccc(Cl)cc4)sc3c2=O)ccc1OCCN1CCCC1        17
3  C=CC(=O)Nc1ccc2ncnc(Nc3ccc(OCc4cccc(F)c4)c(Cl)c3)c2c1.Cc1ccc(S(=O)(=O)O)cc1         9
4  Cc1nc(Nc2n[nH]c3c2CN(C(=O)N[C@H](CN(C)C)c2ccccc2)C3(C)C)c2sccc2n1 [PF-03758309]        16

INPUT: Identify measured Population Hoechst High Intensity Objects (%) corresponding to CCN(CC)CCCCNc1ncc2cc(-c3cc(OC)cc(OC)c3)c(NC(=O)NC(C)(C)C)nc2n1 [PD-173074]
OUTPUT: 74

INPUT: Identify measured Population Hoechst High Intensity Objects (%) corresponding to `Cc1cc(C)cc(-c2cnc3cc(Cl)c(-c4cccc(O)c4)cc3c2OCCCN)c1`
OUTPUT: 21

INPUT: Identify measured Population Hoechst High Intensity Objects (%) corresponding to Cc1nc(-c2ccc(-c3ccc(C(=O)N4CCc5cc6c(cc54)C4(CCN(C)CC4)CO6)cc3)c(C)c2)no1 [SB-224289]
OUTPUT: 14

INPUT: Identify measured Population Hoechst High Intensity Objects (%) corresponding to NC(=O)Nc1cc(-c2cccc(F)c2)sc1C(=O)N[C@H]1CCCNC1 [AZD-7762]
OUTPUT: 14

INPUT: Identify measured Population Hoechst High Intensity Objects (%) corresponding to Cc1nc(-c2cn3c(n2)-c2ccc(-c4cnn(C(C)(C)C(N)=O)c4)cc2OCC3)n(C(C)C)n1 [TASELISIB]
OUTPUT: 14

###

The entries below are paired with their reported Population Tubulin-Different-Phenotype (%).
tested on: Fibroblast; assay: Multiplex assay against human fibroblast; format: toxicity, cell-based; conditions: 12 h, 10 µM, compound concentration 10 uM, replicate 2
Your answer should be a plain number; it is taken to be in %.

>>> df
                                   compound  observed
0  C=CC(=O)Nc1ccc2ncnc(Nc3ccc(OCc4cccc(F)c4)c(Cl)c3)c2c1.Cc1ccc(S(=O)(=O)O)cc1        16

INPUT: Identify measured Population Tubulin-Different-Phenotype (%) corresponding to `COc1ncc(-c2ccc3nccc(-c4ccnnc4)c3c2)cc1NS(=O)(=O)c1ccc(F)cc1F`
OUTPUT: 22

INPUT: Identify measured Population Tubulin-Different-Phenotype (%) corresponding to `CCN(CC)CCCCNc1ncc2cc(-c3cc(OC)cc(OC)c3)c(NC(=O)NC(C)(C)C)nc2n1`
OUTPUT: 8

###

The entries below are paired with their reported Growth Rate.
tested on: HEK-293T; experiment: Incucyte cell viability with HEK293T; assay type: toxicity, cell-based; settings: human, 6 h, 10 µM, compound concentration 10 uM, replicate number 1, timepoint 6 hours; also: filed as whole numbers so only -1 and 0 and 1 occur
Format: numeric value only, no unit, no commentary.

Example entries begin here.
>>> print(df.to_string())
                                   compound  observed
0  Cn1c(-c2csc(C3CCN(CC4=NC5N=CC=CC5N4)CC3)n2)nc2ccccc21 (stereo not drawn)         0
1  CC(C)NCC(O)COc1ccc(CCOCC2CC2)cc1.Cl (stereo not drawn) [BETAXOLOL HYDROCHLORIDE]         0
2  Cc1nc(Nc2n[nH]c3c2CN(C(=O)N[C@H](CN(C)C)c2ccccc2)C3(C)C)c2sccc2n1         0
3  COc1cc(-c2cn([C@H]3CCc4c(F)cccc4N(CC(F)(F)F)C3=O)nn2)ccc1-n1cnc(C)c1         0
4  CC(=O)Nc1c(C(C)=O)c(=O)n(C)c2nc(-c3ccc(Cl)cc3Cl)c(-c3ccc(Cl)cc3)cc12         0
5  COc1ccc(C2(O)OC(=O)C(c3ccc4c(c3)OCO4)=C2Cc2cc(OC)c(OC)c(OC)c2)cc1 (stereo not drawn)         1
6  O=C(NCCN1CCOCC1)c1ccc2c(c1)C(=O)c1ccc(Nc3ccc(F)c(NC(=O)c4ccccc4)c3)cc1CC2         0
7  C=CC(=O)Nc1cccc(C(=O)Nc2ccc(Nc3cc(-c4[nH]c(SC)nc4C)ccn3)cc2)c1         0

INPUT: Identify measured Growth Rate corresponding to `CCn1c(=O)c(-c2ccc(Cl)cc2Cl)cc2cnc(Nc3ccc(N4CCNCC4)c(F)c3)nc21`
OUTPUT: 0

INPUT: Identify measured Growth Rate corresponding to C[C@@H](NCCCc1cccc(C(F)(F)F)c1)c1cccc2ccccc12.Cl [CINACALCET HYDROCHLORIDE]
OUTPUT: 0

INPUT: Identify measured Growth Rate corresponding to CN(C)[C@@H]1CCN(c2cc(-c3ccccc3)nc3ccnn23)C1 [(R)-ZINC-3573]
OUTPUT: 1

INPUT: Identify measured Growth Rate corresponding to `O=C(c1ccc(F)cc1)N1CC(COc2ccc(Br)cc2)(C(=O)O)C1`
OUTPUT: 1

INPUT: Identify measured Growth Rate corresponding to `O=C(O)C[C@H]1CCc2c1[nH]c1ccc(OCc3ccc(C4CCCC4)c(C(F)(F)F)c3)cc21`
OUTPUT: 1

INPUT: Identify measured Growth Rate corresponding to `CC[C@H](C)C(=O)O[C@H]1C[C@@H](C)C=C2C=C[C@H](C)[C@H](CC[C@@H]3C[C@@H](O)CC(=O)O3)[C@H]21`
OUTPUT: 1

INPUT: Identify measured Growth Rate corresponding to C[C@@H]1CCN(C(=O)CC#N)C[C@@H]1N(C)c1ncnc2[nH]ccc12.O=C(O)CC(O)(CC(=O)O)C(=O)O [TOFACITINIB CITRATE]
OUTPUT: 0

###

The entries below are paired with their reported Population Tubulin-Different-Phenotype (%).
system: U2OS; assay: Multiplex assay against U2OS; type: toxicity, cell-based; settings: human, 24 h, 1 µM, compound concentration 1 uM, replicate 2
Your answer should be a plain number; it is taken to be in %.

Example entries begin here.
>>> print(df.to_string())
                                   compound  observed
0  NC(=O)Nc1cc(-c2cccc(F)c2)sc1C(=O)N[C@H]1CCCNC1        34
1  Cc1csc2c(N[C@@H](C)CN3CCN(S(=O)(=O)c4ccc(Cl)c(Cl)c4)CC3)ncnc12        23
2  CNc1nc(NCc2ccc(NS(C)(=O)=O)cc2Cl)cc(-c2ccccn2)n1        11
3  COc1cc(-n2cnc3cc(-c4ccc(Cl)cc4)sc3c2=O)ccc1OCCN1CCCC1        21
4  CC(C)(O)CNc1ncc(-c2ccnc(Nc3ccnc(Cl)c3)n2)c(CC2CC2)n1        16

The record that follows has no Population Tubulin-Different-Phenotype (%) shown yet.
INPUT: Report Population Tubulin-Different-Phenotype (%) under test system U2OS for C[C@@H](NCCCc1cccc(C(F)(F)F)c1)c1cccc2ccccc12.Cl [CINACALCET HYDROCHLORIDE] .
OUTPUT: 17
